Tested on: NCI-H322M lung
experimental protocol: NCI-60 one-dose screen, 48 h (100 = growth as untreated, 0 = no growth, -100 = all killed)
assay conditions: 10 µM unless noted
The panel holds about 83,000 compounds, 20% with a hit somewhere; the sample as a whole holds those more often.
metric: growth (%)
Numbers only, in %.

Would you please look over these solved cases?
Prompt: Need growth, item O=C1N/C(=N/O)S/C1=C/c1cn(-c2ccccc2)nc1-c1ccccc1
Response: 87.3

Prompt: Requested field: growth. Item: Cc1nc(Nc2ccc(NC(=S)Nc3ccccc3)cc2)nc2nc(SCc3ccccc3)[nH]c(=O)c12
Response: 173

Prompt: Field request: growth | item: CO/C(=C1/NC(=O)C(Cc2ccc(O)c(Br)c2)N(C)C(=O)C(C)NC(=O)CCC/C=C(\C)CCC(C)OC1=O)c1ccccc1 (configuration not stated)
Response: -34.3

Each compound below has a recorded value; state its growth.
1. Cn1ccnc1C(=O)/C=C/c1ccc(C(=O)Nc2ccc(S(F)(F)(F)(F)F)cc2)cc1
2. Cc1[nH]c(-c2nc3ccccc3[nH]2)c(C)c1C(=O)N1CCOCC1
3. CC(=O)c1sc(-c2ccccc2)cc1N
4. COc1cccc(/C=C2\COc3ccc(O)cc3C2=O)c1OC
5. O=C(c1ccccc1)c1ccc(N2C(=O)C3C4c5ccccc5C(/C=C/C(=O)c5ccccn5)(c5ccccc54)C3C2=O)cc1 (configuration not stated)
6. CN(C)CCOC(=O)Nc1ccc(Cl)cc1

Response:
[15.4, 94.6, 96.9, 90.5, 74.9, 92.2]

Return reported growth values for all items listed beneath this line.
1. COc1ccc(/C(C)=C(\c2ccc(Cl)cc2)c2ccc(OCCN3CCCCCC3)cc2)cc1F
2. CCCCCCCCN(CCCCCCCC)C(=N)c1ccnc2ccccc12

Response:
1. 83.3
2. -64.5

Look at each compound and report its growth.
1. Cc1ccc2c(n1)C(=O)C(Oc1ccc(F)cc1)=CC2=O
2. O=C1C(Cl)C(c2ccccc2Cl)N1n1cnnc1 (configuration not stated)
3. COc1ccc(C(=O)/C=C/C23c4ccccc4C(c4ccccc42)C2C(=O)NC(=O)C23)cc1 (configuration not stated)
4. N#Cc1c(-c2ccc(C(F)(F)F)cc2)cc(N2CC(O)C2)n2c1nc1ccccc12
5. CCN(CC)CCOC(=O)Nc1ccccc1Cl
6. CN1CCN(CCCOc2ccc3nc(Nc4cc(Cl)cc(Cl)c4)ccc3c2)CC1
7. O=C1Nc2ccccc2/C1=N/N=C/c1ccsc1

Response:
[101, 93.5, 92.4, 60.8, 92.7, -55.5, 100]

# batch: return growth for each of the 2 compounds below
1. Cn1cc(Nc2nccc(-c3ccc(N4CCCC4)c(C#N)c3)n2)cn1
2. N#Cc1c(N)nc2c(nnn2-c2cccc(C(F)(F)F)c2)c1N

Response:
52
89.8

Quick batch: growth for everything below.
1. NC(N)=N/N=C/CO
2. Cc1c2c(cn1Cc1ccccc1)CCc1cn(C)nc1-2

Response:
[99.7, 107]

====

Test system: SF-268 CNS
experimental protocol: NCI-60 one-dose screen, 48 h (100 = growth as untreated, 0 = no growth, -100 = all killed)
assay conditions: 10 µM unless noted
The panel holds about 83,000 compounds, 20% with a hit somewhere; the sample as a whole holds those more often.
metric: growth (%)
Numbers only, in %.

// known answers, use as guide
Prompt: Can you look up growth on SF-268 CNS for CCCN1CCN(c2ccc3nc(-c4ccc5nc(-c6cc(OC)c(OC)c(OC)c6)[nH]c5c4)[nH]c3c2)CC1 ?
Response: 75.6

Prompt: # get_value(readout= growth, system= SF-268 CNS) for Cc1nc(Nc2ccc(S(=O)(=O)Nc3cc(C)on3)cc2)c2ccccc2n1
Response: 99.5

Prompt: Can you look up growth on SF-268 CNS for CO/C(=C1/NC(=O)C(Cc2ccc(O)c(Br)c2)N(C)C(=O)C(C)NC(=O)CCC/C=C(\C)CCC(C)OC1=O)c1ccccc1 (stereo not given) ?
Response: -43.6

Prompt: Under SF-268 CNS: growth value of O=C(NC1CCOCC1)c1ccc2c(c1)CN(c1ncc(Cc3cccc(-n4cccn4)c3)s1)CC2 ?
Response: 80.4

Prompt: What measured growth is associated with Cc1nn(-c2ccccc2)c2c1C(c1ccc([N+](=O)[O-])cc1)C(C#N)=C(N)O2 (stereo not given) on SF-268 CNS?
Response: 108

Please state growth for every compound in the list that follows.
1. Cc1cc(-c2ccccc2)cc(SC#N)[n+]1[O-]
2. CCn1c(Sc2nnc(NC(=O)CSC(=S)N3CCCCC3)s2)nc2c1c(=O)n(C)c(=O)n2C
3. c1ccc2c(c1)nc(-n1ccnc1)c1nc3ccccc3n12
4. Cl.Fc1c[c-]c(-c2ccccn2)c(F)c1.[Pt].c1ccc([PH+](c2ccccc2)c2ccccc2[PH+](c2ccccc2)c2ccccc2)cc1
5. CCN(CC)CCOC(=O)N1c2ccccc2Sc2ccccc21

Response:
[43.3, 96, 37.9, -72.3, 102]

Hi there! I need growth for each item below, if you can.
1. Cn1ccnc1C(=O)/C=C/c1ccc(C(=O)Nc2ccc(S(F)(F)(F)(F)F)cc2)cc1
2. N=C(N)c1ccc(-c2ccc(-c3ccc(Cl)cn3)s2)cc1
3. CC1(C)N=C(N)N=C(N)N1c1ccc(Cl)c(Cl)c1
4. COc1cc(/C=C/c2nc(Nc3ccc(S(=O)(=O)Nc4cc(C)on4)cc3)c3ccccc3n2)ccc1O

Response:
[15.3, 79.8, 42.9, 76.1]

State recorded growth for all listed compounds.
1. O=C1NC(=S)S/C1=C\N1N=C(c2ccc(Cl)cc2)CC1c1ccc(F)cc1 (stereo not given)
2. CCN(CC)CC(=O)Nc1cccc(C(=O)OC(C)C)c1
3. CC(=O)OCCc1ccccc1
4. COc1ccc(/C=C2\C=C(c3ccccc3)N(CCc3ccccc3)C2=O)cc1OC

Response:
[85.9, 105, 128, 55.2]

For each entry beneath this line, provide reported growth.
1. CN(C)c1ccc(/C=C/c2c(F)cccc2F)cc1
2. CC(=O)Nc1ccc(-c2cc3c(NCc4ccc(F)cc4)ncnc3s2)cc1

Response:
93.7
68
